- Test system: Kelch domain of human Keap1 (residues 321-609) (human), Q14145
- Sequence (Q14145 321-609): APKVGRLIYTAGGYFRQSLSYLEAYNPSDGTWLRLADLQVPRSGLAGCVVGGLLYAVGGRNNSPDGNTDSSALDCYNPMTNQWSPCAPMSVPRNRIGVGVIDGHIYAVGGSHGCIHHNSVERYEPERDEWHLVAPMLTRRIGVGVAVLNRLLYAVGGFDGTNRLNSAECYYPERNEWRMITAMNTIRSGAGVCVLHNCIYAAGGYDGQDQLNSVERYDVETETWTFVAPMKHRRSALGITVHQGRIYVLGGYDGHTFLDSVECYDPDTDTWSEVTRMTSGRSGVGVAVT
- Experimental details: ITC
Measured parameter: dH (kcal/mol)

| Binder | dH (kcal/mol) |
| --- | --- |
| ANGNAENEENGEQEADNEVD (modifications not checked) [PTMA isoform 1 peptide (20-mer)] | -14.7 |
| FAQLQLDPETGEFLPIQPAQ (modifications not checked) [NRF2 site 1 E78P peptide (20-mer)] | -16.8 |
| ANGNANEENGEQEADNEVDE (modifications not checked) [PTMA isoform 2 peptide (20-mer)] | -17.3 |
| FAQLQLDEETGEFLPIQPAQ (modifications not checked) [NRF2 site 1 peptide (20-mer)] | -17 |
